target: rabbit 20S proteasome, chymotrypsin-like (CT-L) activity (Oryctolagus cuniculus, UniProt G1T4Q9)
Peptide text beside a SMILES is read from it. * marks the point of attachment. Boc = CC(C)(C)OC(=O)*; NHBn = c1ccc(CN*)cc1
Quantity kind: IC50 (µM)

>  <Compound>
CC(C)(C)OC(=O)N[C@@H](Cc1ccc(O)cc1)C(=O)N[C@@H](CCCNC(=N)N)C(=O)N[C@@H](Cc1c[nH]c2ccccc12)C(=O)NCc1ccccc1 [SP325, N-Boc-Tyr-Arg-Trp-NHCH2Ph] (Boc-Tyr-Arg-Trp-NHBn)

>  <Quantity kind>
IC50

>  <Result number>
5.4

$$$$

I = COC(=O)[C@H](Cc1c[nH]c2ccccc12)NC(=O)[C@H](C)NC(=O)[C@H](Cc1ccc(O)cc1)NC(=O)OC(C)(C)C [NR40, N-Boc-Tyr-Ala-Trp-OCH3] (Boc-Tyr-Ala-Trp-OMe)
II = COC(=O)[C@H](CC1C(=O)Nc2ccccc21)NC(=O)CNC(=O)[C@H](Cc1ccc(OCc2ccccc2)cc1)NC(=O)OC(C)(C)C (stereo partly drawn) [NR38, Boc-Tyr(Bn)-Gly-Trp[O]—OCH3]
III = CC(C)(C)OC(=O)N[C@@H](Cc1ccc(OCc2ccccc2)cc1)C(=O)NCC(=O)N[C@@H](CC1C(=O)Nc2ccccc21)C(=O)NCc1ccccc1 (stereo partly drawn) [NR15, Boc-Tyr(Bn)-Gly-Trp[O]—NHCH2Ph]
Sort these compounds on IC50 so the largest reading comes first. # the answer lists labels in the order requested
I, II, III

* * *

system: rabbit 20S proteasome, trypsin-like (T-L) activity; test: Rabbit 20S proteasome fluorescent assay, trypsin-like activity (Boc-LLR-amc); format: biochemical; settings: [Compound]=100 μM, pH 7.5, 30° C.
Peptide text beside a SMILES is read from it. * marks the point of attachment. Boc = CC(C)(C)OC(=O)*; NHBn = c1ccc(CN*)cc1; Bn = c1ccc(C*)cc1
T-L Activation factor reference
Give the figure by itself; no unit, no explanation.

>  <Molecule>
CC(C)(C)OC(=O)N[C@@H](Cc1ccc(OCc2ccccc2)cc1)C(=O)N[C@@H](CCCN(C(=N)NC(=O)OCc1ccccc1)C(=O)OCc1ccccc1)C(=O)N[C@@H](Cc1c[nH]c2ccccc12)C(=O)NCc1ccccc1 [SP315C2, N-Boc-Tyr(Bn)-Arg(Z)-2-Trp-NHCH2Ph]

>  <T-L Activation factor>
1.9

$$$$
>  <Molecule>
CC(C)(C)OC(=O)N[C@@H](Cc1ccc(OCc2ccccc2)cc1)C(=O)NCC(=O)N[C@@H](Cc1c[nH]c2ccccc12)C(=O)NCc1ccccc1 [PSV11R, N-Boc-Tyr(Bn)-Gly-Trp-NHCH2Ph] (Boc-Tyr(Bn)-Gly-Trp-NHBn)

>  <T-L Activation factor>
1.7

$$$$
>  <Molecule>
COC(=O)[C@H](Cc1c[nH]c2c(Br)cccc12)NC(=O)[C@H](CC(C)C)NC(=O)[C@H](Cc1ccc(OC)c(I)c1)NC(=O)OC(C)(C)C [A363, N-Boc-3-iodo-Tyr(Me)-Leu-7-bromo-Trp-OMe]

>  <T-L Activation factor>
1.9

$$$$
>  <Molecule>
CC(C)(C)OC(=O)NCCCC[C@H](NC(=O)[C@H](Cc1ccc(OCc2ccccc2)cc1)NC(=O)OC(C)(C)C)C(=O)N[C@@H](Cc1c[nH]c2ccccc12)C(=O)NCc1ccccc1 [SP307P, N-Boc-Tyr(Bn)-Lys(Boc)-Trp-NHCH2Ph] (Boc-Tyr(Bn)-Lys(Boc)-Trp-NHBn)

>  <T-L Activation factor>
1.8

$$$$
>  <Molecule>
CC(C)C[C@H](NC(=O)[C@H](Cc1ccc(OCc2ccccc2)cc1)NC(=O)OC(C)(C)C)C(=O)N[C@@H](CC1C(=O)Nc2ccccc21)C(=O)Nc1ccccc1 (some centres unmarked) [JV602, Boc-Tyr(Bn)-Leu-Trp[O]—NHPh]

>  <T-L Activation factor>
1.3

$$$$
>  <Molecule>
CC(C)(C)OC(=O)N[C@@H](Cc1ccc(OCc2ccccc2)cc1)C(=O)N[C@@H](CCCN(C(=N)NC(=O)OCc1ccccc1)C(=O)OCc1ccccc1)C(=O)N[C@@H](CC1C(=O)Nc2ccccc21)C(=O)Nc1ccccc1 (some centres unmarked) [CV11, Boc-Tyr(Bn)-Arg(Z)-2-Trp[O]—NHPh]

>  <T-L Activation factor>
1.7

$$$$
>  <Molecule>
COC(=O)[C@H](Cc1c[nH]c2ccccc12)NC(=O)[C@H](C)NC(=O)[C@H](Cc1ccc(OCc2ccccc2)cc1)NC(=O)OC(C)(C)C [NR36, N-Boc-Tyr(Bn)-Ala-Trp-OCH3] (Boc-Tyr(Bn)-Ala-Trp-OMe)

>  <T-L Activation factor>
9.8

$$$$

Here's the next entry for you.
Record lookup: for rabbit 20S proteasome, trypsin-like (T-L) activity, what T-L Activation factor belongs to CCOC(=O)[C@H](Cc1c[nH]c2c(-c3cc(C[C@H](NC(=O)OC(C)(C)C)C(=O)N[C@@H](CC(C)C)C(=O)OC)ccc3OCc3ccccc3)cccc12)NC(=O)OCc1ccccc1 [SP221] ?
1.4

* * *

Target: rabbit 20S proteasome, chymotrypsin-like (CT-L) activity (Oryctolagus cuniculus, UniProt G1T4Q9)
Construct: other: 100 μM compound, pH 7.5, 30° C; other: pH 7.5, 30° C; CT-L Ki
Sequence (G1T4Q9 1-263): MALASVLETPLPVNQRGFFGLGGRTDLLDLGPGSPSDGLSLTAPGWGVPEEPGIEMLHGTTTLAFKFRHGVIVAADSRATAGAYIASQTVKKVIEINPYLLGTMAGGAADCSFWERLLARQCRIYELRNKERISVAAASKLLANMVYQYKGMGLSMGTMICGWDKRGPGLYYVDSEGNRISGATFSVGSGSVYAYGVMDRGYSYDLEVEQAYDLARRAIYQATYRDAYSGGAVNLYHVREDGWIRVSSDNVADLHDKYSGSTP
Test: Rabbit 20S proteasome fluorescent assay, chymotrypsin-like activity (Suc-LLVY-amc)
Assay type: biochemical
Settings: 100 μM compound, pH 7.5, 30° C.
Quantity kind: inhibition at 100 µM (%)

>  <Compound>
COC(=O)[C@H](Cc1c[nH]c2c(Br)cccc12)NC(=O)[C@H](C)NC(=O)[C@H](Cc1ccc(OC)c(I)c1)NC(=O)OC(C)(C)C

>  <Result number>
28

$$$$
>  <Compound>
C[C@H](NC(=O)[C@H](Cc1ccc(OCc2ccccc2)cc1)NC(=O)OC(C)(C)C)C(=O)N[C@@H](CC1C(=O)Nc2ccccc21)C(=O)Nc1ccccc1 (stereo partly shown) [CV13, Boc-Tyr(Bn)-Ala-Trp[O]—NHPh]

>  <Result number>
32

$$$$
>  <Compound>
C[C@H](NC(=O)[C@H](Cc1ccc(OCc2ccccc2)cc1)NC(=O)OC(C)(C)C)C(=O)N[C@@H](Cc1c[nH]c2ccccc12)C(=O)Nc1ccc(O)cc1 [SP313P, N-Boc-Tyr(Bn)-Ala-Trp-NH(4-OH)Ph]

>  <Result number>
26

$$$$
>  <Compound>
CC(C)(C)OC(=O)N[C@@H](Cc1ccc(OCc2ccccc2)cc1)C(=O)N[C@@H](CCCN(C(=N)NC(=O)OCc1ccccc1)C(=O)OCc1ccccc1)C(=O)N[C@@H](CC1C(=O)Nc2ccccc21)C(=O)NCc1ccccc1 (stereo partly shown) [NR16, Boc-Tyr(Bn)-Arg(Z)-2-Trp[O]—NHCH2Ph]

>  <Result number>
12

$$$$

* * *

T-L Activation factor reference
test system: rabbit 20S proteasome, trypsin-like (T-L) activity; test: Rabbit 20S proteasome fluorescent assay, trypsin-like activity (Boc-LLR-amc); assay type: biochemical; details: [Compound]=100 μM, pH 7.5, 30° C.
Give the figure by itself; no unit, no explanation.

>  <Compound>
CC(C)(C)OC(=O)N[C@@H](Cc1ccc(OCc2ccccc2)cc1)C(=O)N[C@@H](CCCN(C(=N)NC(=O)OCc1ccccc1)C(=O)OCc1ccccc1)C(=O)N[C@@H](CC1C(=O)Nc2ccccc21)C(=O)NCc1ccccc1 (stereo partly shown) [NR16, Boc-Tyr(Bn)-Arg(Z)-2-Trp[O]—NHCH2Ph]

>  <T-L Activation factor>
8.2

$$$$
>  <Compound>
CC(C)(C)OC(=O)NCCCCNC(=O)[C@H](Cc1c[nH]c2ccccc12)NC(=O)[C@H](CC(N)=O)NC(=O)[C@H](Cc1ccc(OCc2ccccc2)cc1)NC(=O)OC(C)(C)C

>  <T-L Activation factor>
2.2

$$$$

Record lookup: for rabbit 20S proteasome, trypsin-like (T-L) activity, what T-L Activation factor belongs to CC(C)(C)OC(=O)NCCCCNC(=O)[C@H](Cc1c[nH]c2ccccc12)NC(=O)[C@H](CCCCNC(=O)OC(C)(C)C)NC(=O)[C@H](Cc1ccc(OCc2ccccc2)cc1)NC(=O)OC(C)(C)C [SP308P, N-Boc-Tyr(Bn)-Lys(Boc)-Trp-NH(CH2)4NHBoc] ?
1.9

Record lookup: for rabbit 20S proteasome, trypsin-like (T-L) activity, what T-L Activation factor belongs to COC(=O)[C@H](Cc1c[nH]c2c(Br)cccc12)NC(=O)CCNC(=O)C(Cc1ccc(OC)c(I)c1)NC(=O)OC(C)(C)C (stereo partly shown) ?
8.2
